assay: Binding affinity to polyA-polyU (unknown origin) by UV-vis spectrophotometric method
The source made the active and inactive calls. No cut-off for these calls is given here.
outcome measure: log Ks

Known log Ks results, listed for orientation:
Cl.Cl.Cl.N=C(NC1CCCC1)c1ccc2nc(-c3ccc(OCCNc4ccnc5cc(Cl)ccc45)cc3)[nH]c2c1 :: 6.81
Cl.Cl.Cl.N=C(N)c1ccc2nc(-c3ccc(OCCNc4ccnc5cc(Cl)ccc45)cc3)[nH]c2c1 :: inactive
Cl.Cl.Cl.Clc1ccc2c(NCCOc3ccc(-c4nc5ccc(C6=NCCCN6)cc5[nH]4)cc3)ccnc2c1 :: inactive
Cl.Cl.Cl.Clc1ccc2c(NCCOc3ccc(-c4nc5ccc(C6=NCCN6)cc5[nH]4)cc3)ccnc2c1 :: 6.71

Give me measured log Ks, please, for this compound: Cl.Cl.Cl.N=C(N)c1ccc2nc(-c3ccc(Oc4ccnc5cc(Cl)ccc45)cc3)[nH]c2c1 6.43

Give the reported value of log Ks for this record: N#Cc1ccc(OCCNc2ccnc3cc(Cl)ccc23)cc1 inactive

Name the recorded log Ks of the compound listed here: CC(C)CNC(=N)c1ccc2nc(-c3ccc(Oc4ccnc5cc(Cl)ccc45)cc3)[nH]c2c1.Cl.Cl.Cl 6.05

Check the records and state log Ks for Cl.Cl.N=C(NC1CCCC1)c1ccc2nc(-c3ccc(Oc4ccnc5cc(Cl)ccc45)cc3)[nH]c2c1 6.31

Specify reported log Ks for the compound shown: CC(C)NC(=N)c1ccc2nc(-c3ccc(Oc4ccnc5cc(Cl)ccc45)cc3)[nH]c2c1.Cl.Cl.Cl 5.36

Item CC(C)CNC(=N)c1ccc2nc(-c3ccc(OCCNc4ccnc5cc(Cl)ccc45)cc3)[nH]c2c1.Cl.Cl.Cl : provide log Ks 7.02

Retrieve log Ks measured for Cl.Cl.Clc1ccc2c(Oc3ccc(-c4nc5ccc(C6=NCCCN6)cc5[nH]4)cc3)ccnc2c1 and print it. 7.29

Look up log Ks of CC(C)NC(=N)c1ccc2nc(-c3ccc(OCCNc4ccnc5cc(Cl)ccc45)cc3)[nH]c2c1.Cl.Cl.Cl and report it. inactive

* * *

system: Raji; assay: Growth inhibition of human Raji cells after 72 hrs by MTT assay; assay type: functional
outcome measure: log10(GI50) (log10 of the value in µM)
The figures below represent log10 of GI50, where GI50 is stated in µM.

State its log10(GI50): Cl.Cl.Clc1ccc2c(Oc3ccc(-c4nc5ccc(C6=NCCCN6)cc5[nH]4)cc3)ccnc2c1 1.70

Determine from records and report log10(GI50) for Cl.Cl.Cl.Clc1ccc2c(NCCOc3ccc(-c4nc5ccc(C6=NCCN6)cc5[nH]4)cc3)ccnc2c1 1.44

Respond only with log10(GI50) recorded for Cl.Cl.Clc1ccc2c(Oc3ccc(C4=NCCN4)cc3)ccnc2c1 1.61

Determine its reported log10(GI50): Cl.Cl.N=C(NC1CCCC1)c1ccc2nc(-c3ccc(Oc4ccnc5cc(Cl)ccc45)cc3)[nH]c2c1 1.62

Name the recorded log10(GI50) of the item Cl.Cl.Cl.N=C(N)c1ccc2nc(-c3ccc(OCCNc4ccnc5cc(Cl)ccc45)cc3)[nH]c2c1 in your answer. 1.47

For Cl.Cl.Cl.N=C(NC1CCCC1)c1ccc(Oc2ccnc3cc(Cl)ccc23)cc1 , write its log10(GI50). 1.29

Item Cl.Cl.Cl.N=C(N)c1ccc2nc(-c3ccc(Oc4ccnc5cc(Cl)ccc45)cc3)[nH]c2c1 : provide log10(GI50) 2.05

Give log10(GI50) for Cl.Cl.Cl.N=C(N)c1ccc(OCCNc2ccnc3cc(Cl)ccc23)cc1 1.77

Name the recorded log10(GI50) of the compound listed here: CC(C)CNC(=N)c1ccc(Oc2ccnc3cc(Cl)ccc23)cc1.Cl.Cl.Cl 1.41

Indicate its recorded log10(GI50); the compound in question is CC(C)CNC(=N)c1ccc(OCCNc2ccnc3cc(Cl)ccc23)cc1.Cl.Cl.Cl 1.94

Give recorded log10(GI50). N#Cc1ccc(OCCNc2ccnc3cc(Cl)ccc23)cc1 0.79

For the compound Cl.Cl.N=C(N)c1ccc(Oc2ccnc3cc(Cl)ccc23)cc1 , give its measured log10(GI50) value. 1.72

// fetch log10(GI50) given entry CC(C)CNC(=N)c1ccc2nc(-c3ccc(OCCNc4ccnc5cc(Cl)ccc45)cc3)[nH]c2c1.Cl.Cl.Cl 1.45

State its log10(GI50) for this compound: CC(C)NC(=N)c1ccc2nc(-c3ccc(OCCNc4ccnc5cc(Cl)ccc45)cc3)[nH]c2c1.Cl.Cl.Cl 1.29

For the compound CC(C)NC(=N)c1ccc2nc(-c3ccc(Oc4ccnc5cc(Cl)ccc45)cc3)[nH]c2c1.Cl.Cl.Cl , give its measured log10(GI50) value. 1.68

// Input: Cl.Cl.Clc1ccc2c(Oc3ccc(C4=NCCCN4)cc3)ccnc2c1 . Output its log10(GI50) only. 1.71

Return log10(GI50) for the following compound: CC(C)NC(=N)c1ccc(Oc2ccnc3cc(Cl)ccc23)cc1.Cl.Cl.Cl 1.71

Given N#Cc1ccc2nc(-c3ccc(OCCNc4ccnc5cc(Cl)ccc45)cc3)[nH]c2c1 , respond with its log10(GI50). 0.72
